Molecular target: GluN2B glutamate receptors (Homo sapiens (Human), UniProt Q05586+Q13224)
Sequence (Q13224 27-1484, other chains not shown): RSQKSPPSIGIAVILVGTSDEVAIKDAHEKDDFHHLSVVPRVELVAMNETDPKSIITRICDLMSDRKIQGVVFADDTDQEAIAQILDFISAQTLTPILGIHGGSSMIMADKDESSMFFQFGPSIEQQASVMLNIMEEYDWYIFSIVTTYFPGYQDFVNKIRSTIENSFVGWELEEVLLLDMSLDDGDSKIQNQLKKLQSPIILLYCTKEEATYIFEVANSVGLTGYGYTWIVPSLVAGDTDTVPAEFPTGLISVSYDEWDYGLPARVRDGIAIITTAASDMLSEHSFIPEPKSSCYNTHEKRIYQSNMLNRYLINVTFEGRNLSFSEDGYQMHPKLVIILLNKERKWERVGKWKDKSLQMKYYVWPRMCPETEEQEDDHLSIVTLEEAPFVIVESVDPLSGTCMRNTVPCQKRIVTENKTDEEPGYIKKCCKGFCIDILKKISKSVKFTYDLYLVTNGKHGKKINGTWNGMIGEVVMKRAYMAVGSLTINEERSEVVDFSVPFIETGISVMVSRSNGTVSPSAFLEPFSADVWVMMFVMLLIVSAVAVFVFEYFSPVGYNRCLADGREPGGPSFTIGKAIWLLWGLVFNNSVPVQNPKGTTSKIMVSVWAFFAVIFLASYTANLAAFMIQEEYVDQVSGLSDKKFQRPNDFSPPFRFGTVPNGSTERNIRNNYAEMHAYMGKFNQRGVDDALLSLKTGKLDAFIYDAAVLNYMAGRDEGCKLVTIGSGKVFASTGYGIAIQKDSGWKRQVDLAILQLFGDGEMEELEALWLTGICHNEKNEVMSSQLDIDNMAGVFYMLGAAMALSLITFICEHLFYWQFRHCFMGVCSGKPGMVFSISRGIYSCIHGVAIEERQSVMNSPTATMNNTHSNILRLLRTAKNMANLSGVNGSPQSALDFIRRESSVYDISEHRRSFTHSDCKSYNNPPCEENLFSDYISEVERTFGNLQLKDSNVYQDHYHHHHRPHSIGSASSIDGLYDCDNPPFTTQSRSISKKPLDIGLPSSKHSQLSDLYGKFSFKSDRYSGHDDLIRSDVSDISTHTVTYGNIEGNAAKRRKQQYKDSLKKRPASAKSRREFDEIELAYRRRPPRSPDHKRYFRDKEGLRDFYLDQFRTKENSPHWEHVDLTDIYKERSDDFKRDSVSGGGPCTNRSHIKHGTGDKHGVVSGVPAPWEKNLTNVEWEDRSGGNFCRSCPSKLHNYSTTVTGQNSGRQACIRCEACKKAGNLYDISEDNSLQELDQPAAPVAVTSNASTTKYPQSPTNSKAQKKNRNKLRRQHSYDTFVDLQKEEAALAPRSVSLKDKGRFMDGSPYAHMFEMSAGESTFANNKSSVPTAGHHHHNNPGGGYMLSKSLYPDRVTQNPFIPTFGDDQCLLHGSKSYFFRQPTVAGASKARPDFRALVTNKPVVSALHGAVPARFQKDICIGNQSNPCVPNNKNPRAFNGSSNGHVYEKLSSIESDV
Assay: Whole-cell patch clamp of mammalian cells (Ionworks Barracuda), positive allosteric modulation, GluN2B
Format: cell-based
Conditions: read-out: Avg Emax 2B (%)
readoutName: Emax
Report as: number unit

(Q) Any idea what Emax was measured for CCC(O)CCC[C@@H](C)[C@H]1CC[C@H]2[C@@H]3CC=C4C[C@](O)(CC)CC[C@@H]4[C@H]3CC[C@]12C (some centres unmarked) [Compound 10673] ?
(A) 214%

(Q) Any idea what Emax was measured for C[C@H](CC[C@](C)(O)c1ccccc1)[C@H]1CC[C@H]2[C@@H]3CC=C4C[C@@](C)(O)CC[C@]4(C)[C@H]3CC[C@]12C [Compound 7468] ?
(A) 317%

(Q) Any idea what Emax was measured for C[C@H](CCC1(O)CCC(OC(F)F)CC1)[C@H]1CC[C@H]2[C@@H]3CC[C@H]4C[C@](O)(C(F)(F)F)CC[C@]4(C)[C@H]3CC[C@]12C (some centres unmarked) [Compound 5131] ?
(A) 39%

(Q) Any idea what Emax was measured for CC[C@]1(O)CC[C@H]2C(=CC[C@@H]3[C@@H]2CC[C@]2(C)[C@@H]([C@H](C)CC[C@@H](O)C(C)(C)C)CC[C@@H]32)C1 [Compound 8379] ?
(A) 359%

(Q) Any idea what Emax was measured for CC[C@]1(O)CC[C@H]2C(=CC[C@@H]3[C@@H]2CC[C@]2(C)[C@@H]([C@H](C)CCC(O)C(C)(C)C)CC[C@@H]32)C1 (some centres unmarked) [Compound 8361] ?
(A) 309%

Reference for the values: patent US11149054B2
